- TEST METHOD NOTES: Potentiation of amphetamine: stereotypies in rats after d-amphetamine sulphate
- Assay type: in vivo
- RUN PARAMETERS: 16 mg/kg intraperitoneal, 30 min before 5 mg/kg d-amphetamine sulphate i.p.; over 3 hours; maximum 24
So basically: sum of the assessments of intensity of stereotypies at 20 or higher? That is true (1). Lower than 20? That is false (0).

Example results:
COMPOUND	DISCRETE LABEL
CC1C(c2ccc(Cl)cc2)CC(C2CC2)N1CCO.Cl (stereo not shown) [XXXVII]	true (1)
CC1NC(C2CC2)CC1c1ccccc1.Cl (stereo not shown) [Example XXII]	false (0)
C#CCN1C(C)C(c2ccc(Cl)c(Cl)c2)CC1C1CC1.Cl (stereo not shown) [Example XXXV]	true (1)
CC1NC(C2CC2)CC1c1ccc(Cl)c(Cl)c1.Cl (stereo not shown) [XXVII]	true (1)
CC1NC(C2CC2)CC1c1ccc(Cl)cc1.Cl (stereo not shown) [XXIV]	true (1)
CC1(C)NC(C2CC2)CC1c1cccc(Cl)c1.Cl (stereo not shown) [XXVI]	false (0)
CC1NC(C2CC2)CC1c1cccc(C(F)(F)F)c1.Cl (stereo not shown) [XXIX]	false (0)
CC1(C)NC(C2CC2)CC1c1cccc(F)c1.Cl (stereo not shown) [XXVIII]	false (0)
CC1(C)NC(C2CC2)CC1c1ccccc1.Cl (stereo not shown) [Example XXI]	false (0)

Turning now to a further compound:
Reported sum of the assessments of intensity of stereotypies at or above 20? CC1(C)NC(C2CC2)CC1c1cccc(C(F)(F)F)c1.Cl (stereo not shown) [Example XXX]
true (1)

---

- TEST METHOD NOTES: Anorexigenic activity in dogs
- Type: in vivo, Beagle dogs
- RUN PARAMETERS: Canis lupus familiaris; Beagle dogs, 10 mg/kg oral, 2 hrs after treatment; read-out: percentage inhibition of consuming food
REPORTED ENDPOINT: inhibition in vivo at 10 mg/kg (%)
Response body: numeric value in %, unit text excluded.

Examples from the recorded data:
MOLECULE	UNIT TAG	ASSAY RESULT
COc1ccc(C2CC(C3CC3)NC2C)cc1OC.Cl (stereo not drawn) [XXXI, hydrochloride]	%	0
CC1(C)NC(C2CC2)CC1c1cccc(F)c1.Cl (stereo not drawn) [XXVIII, hydrochloride]	%	100
CC1NC(C2CC2)CC1c1cccc(Cl)c1.Cl (stereo not drawn) [XXV, hydrochloride]	%	50
CC1(C)NC(C2CC2)CC1c1ccc(Cl)cc1.Cl (stereo not drawn) [Example XXIII, hydrochloride]	%	100
CC1C(c2ccc(Cl)cc2)CC(C2CC2)N1CCO.Cl (stereo not drawn) [XXXVII, hydrochloride]	%	0

Look at this molecule and give its reported inhibition in vivo at 10 mg/kg. CC1NC(C2CC2)CC1c1cccc(C(F)(F)F)c1.Cl (stereo not drawn) [XXIX, hydrochloride]
0

Look at this molecule and give its reported inhibition in vivo at 10 mg/kg. CC1C(c2ccc(Cl)c(Cl)c2)CC(C2CC2)N1Cc1ccccc1.Cl (stereo not drawn) [XXXIV, hydrochloride]
100

Look at this molecule and give its reported inhibition in vivo at 10 mg/kg. CC1(C)NC(C2CC2)CC1c1cccc(C(F)(F)F)c1.Cl (stereo not drawn)
0

Look at this molecule and give its reported inhibition in vivo at 10 mg/kg. CC1(C)NC(C2CC2)CC1c1cccc(Cl)c1.Cl (stereo not drawn) [XXVI, hydrochloride]
60

---

- TEST METHOD NOTES: Potentiation of amphetamine: stereotypies in rats after d-amphetamine sulphate
- Type: in vivo
- RUN PARAMETERS: 1 mg/kg intraperitoneal, 30 min before 5 mg/kg d-amphetamine sulphate i.p.; over 3 hours; maximum 24
In this section, each of the compounds is paired with its reported sum of the assessments of intensity of stereotypies.
Please give only the number in your answer, with no unit.

COMPOUND	ASSAY RESULT
CC1NC(C2CC2)CC1c1ccccc1.Cl (stereo not drawn)	8

Look at this compound and give its reported sum of the assessments of intensity of stereotypies. CC1(C)NC(C2CC2)CC1c1cccc(Cl)c1.Cl (stereo not drawn)
12

Look at this compound and give its reported sum of the assessments of intensity of stereotypies. CC1NC(C2CC2)CC1c1cccc(C(F)(F)F)c1.Cl (stereo not drawn)
17

Look at this compound and give its reported sum of the assessments of intensity of stereotypies. CCN1C(C)C(c2cccc(C(F)(F)F)c2)CC1C1CC1 (stereo not drawn)
20

Look at this compound and give its reported sum of the assessments of intensity of stereotypies. CC1(C)NC(C2CC2)CC1c1cccc(C(F)(F)F)c1.Cl (stereo not drawn)
20

---

- TEST METHOD NOTES: Toxicity, isolated mice (death rate)
- RUN PARAMETERS: mouse, in vivo, 128 mg/kg oral, 4 hours after treatment, read-out: percentage death rate
REPORTED ENDPOINT: mortality at 4 h (%)
Response body: numeric value in %, unit text excluded.

MOLECULE	mortality at 4 h, %
CC1NC(C2CC2)CC1c1ccc(Cl)cc1.Cl (centres unmarked) [XXIV, hydrochloride]	27

Next up:
Look at this molecule and give its reported mortality at 4 h. CC(N)Cc1ccccc1 (stereo not drawn) [Amphetamine, d-amphetamine sulphate, reference compound]
100

---

- TEST METHOD NOTES: Toxicity, mice in groups (death rate)
- RUN PARAMETERS: mouse, in vivo, 8 mg/kg oral, 4 hours after treatment, read-out: percentage death rate
REPORTED ENDPOINT: mortality at 4 h
Be sure to follow the number with its unit.

Look at this compound and give its reported mortality at 4 h. CC(N)Cc1ccccc1 (stereo not drawn) [Amphetamine, d-amphetamine sulphate, reference compound]
20%

---

- TEST METHOD NOTES: Toxicity, mice in groups (death rate)
- RUN PARAMETERS: mouse, in vivo, 128 mg/kg oral, 4 hours after treatment, read-out: percentage death rate
REPORTED ENDPOINT: mortality at 4 h (%)
Response body: numeric value in %, unit text excluded.

COMPOUND	UNIT TAG	mortality at 4 h
CC1NC(C2CC2)CC1c1ccc(Cl)cc1.Cl (centres unmarked) [XXIV, hydrochloride]	%	0

Next up:
Look at this compound and give its reported mortality at 4 h. CC1NC(C2CC2)CC1c1ccc(Cl)c(Cl)c1.Cl (centres unmarked) [XXVII, hydrochloride]
70

---

- TEST METHOD NOTES: Potentiation of amphetamine: stereotypies in rats after d-amphetamine sulphate
- Type: in vivo
- RUN PARAMETERS: 1 mg/kg intraperitoneal, 30 min before 5 mg/kg d-amphetamine sulphate i.p.; over 3 hours; maximum 24
In this section, each of the molecules is paired with its reported sum of the assessments of intensity of stereotypies.
Please give only the number in your answer, with no unit.

Examples from the recorded data:
MOLECULE	ASSAY RESULT
CC1NC(C2CC2)CC1c1ccc(Cl)cc1.Cl (stereo not shown) [XXIV]	7
CC1NC(C2CC2)CC1c1ccc(Cl)c(Cl)c1.Cl (stereo not shown) [XXVII]	21
CC1(C)NC(C2CC2)CC1c1cccc(F)c1.Cl (stereo not shown) [XXVIII]	16

Next up:
Look at this molecule and give its reported sum of the assessments of intensity of stereotypies. C#CCN1C(C)C(c2ccc(Cl)c(Cl)c2)CC1C1CC1.Cl (stereo not shown) [Example XXXV]
18
